assay.system: T1, full length human GLP-1R with N-terminal FLAG tag and C-terminal GFP tag, on CHO cells (human, UniProt P43220 24-463)
T1 construct: whole, on cells; the cell line itself is tied to UniProt P43220; also called FLAG-GLP-1R-GFP; CHO-GLP-1R
experiment.description: flow cytometry titration, CHO GLP1R cells
Each record here notes measured Bmax.

binder	Bmax
GLP1R-222-073 (antibody, V domains shown, IgG) VH: QVQLVESGGGVVQPGRSLRLSCAASGFTFRDYGMHWVRQAPGKGLEWVAFIRYDEINKYYADSVKGRFTISRDNSKNTLYLQMNSLRAEDTAVYYCAKHMSMQEGAVTGEGQAAKEFIAWLVGGRVRADLVGDAFDVWGQGTLVTVSS VL: QSVLTQPPSVSAAPGQKVTISCSGSGSNIGNNDVSWYQQLPGTAPKLLIYDNNKRASGIPDRFSGSKSGTSATLGITGLQTGDEADYYCGTWDRGPNTGVFGGGTKLTVL	151000
GLP1R-3 (antibody, human IgG2, lambda, V domains shown, full length human IgG2; also called GLP1R01-3) VH: QVQLVESGGGVVQPGRSLRLSCAASGFTFSSYGMHWVRQAPGKGLEWVSFISYDESNKYYADSVKGRFTISRDNSKNTLYLQMNSLRAEDTAVYYCAKHMSMQEGAVTGEGQAAKEFIAWLVKGRVRADLVGDAFDVWGQGTLVTVSS VL: QSVLTQPPSVSAAPGQKVTISCSGSSSNIADNYVSWYQQLPGTAPKLLIYDNNKRPSGIPDRFSGSKSGTSATLGITGLQTGDEADYYCGTWDNYLGAGVFGGGTKLTVLG	153000

FYI, the data here is from patent US20250340658A1.
